Target: T1, human CD19 (human, UniProt P15391 20-556)
T1 construct: CD19 as expressed on Raji, NALM-6 and SU-DHL-6 cells; also called CD19 antigen; B-cell surface antigen B4
T1 sequence: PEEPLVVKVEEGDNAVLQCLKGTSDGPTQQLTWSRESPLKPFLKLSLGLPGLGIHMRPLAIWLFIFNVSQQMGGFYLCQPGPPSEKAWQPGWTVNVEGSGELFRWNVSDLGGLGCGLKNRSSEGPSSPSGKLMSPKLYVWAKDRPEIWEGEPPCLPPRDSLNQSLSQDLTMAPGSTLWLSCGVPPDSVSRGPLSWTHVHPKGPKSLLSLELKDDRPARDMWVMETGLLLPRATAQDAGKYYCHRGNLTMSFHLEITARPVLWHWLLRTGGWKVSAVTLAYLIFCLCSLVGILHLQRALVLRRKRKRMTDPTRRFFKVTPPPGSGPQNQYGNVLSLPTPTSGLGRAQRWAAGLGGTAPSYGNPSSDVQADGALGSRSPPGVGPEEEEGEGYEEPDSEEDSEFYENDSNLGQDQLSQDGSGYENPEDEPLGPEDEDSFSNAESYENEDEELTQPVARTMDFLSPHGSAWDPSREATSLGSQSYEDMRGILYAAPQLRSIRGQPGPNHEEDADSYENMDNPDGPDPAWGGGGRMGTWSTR
Assay: flow cytometry on Raji cells, PE-labelled anti-human secondary antibody, MFI against antibody concentration
metric-name: binding result

binder	experimental-value
VH16/VL39 (antibody, human IgG1, V domains shown) VH: QVQLVQSGGGVVQPGRSLRLSCAASGVSLPDYGVSWVRQAPGKGLEWVAVIWGSETTYYNSALKSRFTISRDNSKNTLYLQMNSLRAEDTAVYYCARHYYYGGSYAMDYWGQGTLVTVSS VL: DIVMTQSPSTLSASVGDRVTITCRASQDISKYLNWYQQKPGKAPKLLIYHTSRLHSGVPSRFSGSGSGTEFTLTISSLQPDDFATYYCQQGNTLPYTFGQGTKVEIKR	binds
VH16/VL40 (antibody, human IgG1, V domains shown) VH: QVQLVQSGGGVVQPGRSLRLSCAASGVSLPDYGVSWVRQAPGKGLEWVAVIWGSETTYYNSALKSRFTISRDNSKNTLYLQMNSLRAEDTAVYYCARHYYYGGSYAMDYWGQGTLVTVSS VL: DIVMTQTPSSLSASVGDRVTITCRASQDISKYLNWYQQKPGKVPNLLIYHTSRLHSGVPSRFSGSGSGTEFTLTISSLQPEDFATYYCQQGNTLPYTFGGGTKVEIKR	binds
VH20/VL44 (antibody, human IgG1, V domains shown) VH: QVQLVQSGGGLVQPGGSLRLSCVASGVSLPDYGVSWVRQAPGKGLEWVSVIWGSETTYYNSALKSRFTISRDNAKNSLYLQMNSLRAEDTAVYYCARHYYYGGSYAMDYWGQGTLVTVSS VL: DIVMTQSPSSMSASIGDRVTITCRASQDISKYLNWYQQKPGKAPNLLIYHTSRLHSGVPSRFSGSGSGTEFTLTISSLQPEDFATYYCQQGNTLPYTFGQGTKLEIKR	binds
